Target: HIS-tagged IDO1 protein (Homo sapiens (Human), UniProt P14902)
Experiment: IDO1 Enzyme Assay
Conditions: recombinant IDO1 40 nM, tryptophan substrate, fluorescence readout
pIC50: −log10 of the molar value.
measurement.type: pIC50

Consider the following illustrative entries.
| compound | pIC50 |
| --- | --- |
| O=C(COc1nonc1/C(=N/O)N[C@H]1Cc2ccc(F)cc21)N1CC[C@H](O)C1 [Example 45] | 6.00 |
| O=C(CO)N[C@H]1C[C@H](Oc2nonc2/C(=N/O)N[C@H]2Cc3ccc(F)cc32)C1 [Example 56] | 5.83 |
| C[C@@H](O)CNC(=O)COc1nonc1/C(=N/O)N[C@H]1Cc2ccc(F)cc21 [Example 10] | 7.00 |
| NC(=O)NCCOc1nonc1/C(=N/O)NC1Cc2ccc(F)cc21 (centres unmarked) [Example 11] | 7.13 |
| O/N=C(\N[C@H]1Cc2ccc(F)cc21)c1nonc1OCCn1cnnc1 [Example 28] | 6.40 |

I. CC(=O)N[C@H]1C[C@@H](Oc2nonc2/C(=N/O)N[C@H]2Cc3ccc(F)cc32)C1 [Example 36]
II. O=C(COc1nonc1/C(=N/O)N[C@H]1CCc2ccc(F)cc21)NCCO [Example 13]
III. CC(=O)NC[C@@H](CO)Oc1nonc1/C(=N/O)N[C@H]1Cc2ccc(F)cc21 [Example 55]
Thanks in advance: please rank these 3 entries by pIC50, highest to lowest. Put the labels in the order asked and list them.
I, III, II
(I: 7.29, III: 6.67, II: 6.32)

====

Target: IDO1 in Hela cells stimulated with IFNγ (Homo sapiens (Human))
Sequence (P14902 whole entry): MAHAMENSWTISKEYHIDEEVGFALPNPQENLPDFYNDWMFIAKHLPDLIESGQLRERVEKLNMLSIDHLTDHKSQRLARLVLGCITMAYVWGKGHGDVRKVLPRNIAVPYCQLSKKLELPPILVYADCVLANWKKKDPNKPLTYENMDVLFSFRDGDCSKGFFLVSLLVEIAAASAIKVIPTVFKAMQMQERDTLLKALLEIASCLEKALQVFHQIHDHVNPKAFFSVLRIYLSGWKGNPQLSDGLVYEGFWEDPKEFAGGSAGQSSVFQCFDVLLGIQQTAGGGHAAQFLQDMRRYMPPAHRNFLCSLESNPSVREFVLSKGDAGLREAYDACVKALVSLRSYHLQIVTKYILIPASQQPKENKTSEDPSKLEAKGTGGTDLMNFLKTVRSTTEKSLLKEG
Experiment: IDO1 Cellular Assay in Hela Cells Stimulated with IFNγ
Conditions: IFNγ 100 ng/mL, about 48 hours, fluorescence readout, read-out: IDO1 HELA Cell Assay, IC50
pIC50: −log10 of the molar value.
measurement.type: pIC50

Below: 5 molecules and their reported pIC50.
| molecule.smiles | assayed.system | measured.value |
| --- | --- | --- |
| CC(=O)NC[C@H](O)COc1nonc1/C(=N/O)N[C@H]1Cc2ccc(F)cc21 | IDO1 in Hela cells stimulated with IFNγ (Homo sapiens (Human)) | 6.48 |
| NC(=O)N[C@H]1C[C@H](Oc2nonc2/C(=N/O)N[C@H]2Cc3ccc(F)cc32)C1 | IDO1 in Hela cells stimulated with IFNγ (Homo sapiens (Human)) | 6.48 |
| C[C@H](CO)NC(=O)COc1nonc1/C(=N/O)N[C@H]1Cc2ccc(F)cc21 | IDO1 in Hela cells stimulated with IFNγ (Homo sapiens (Human)) | 6.38 |
| NS(=O)(=O)N1CC(Oc2nonc2/C(=N/O)N[C@H]2Cc3ccc(F)cc32)C1 | IDO1 in Hela cells stimulated with IFNγ (Homo sapiens (Human)) | 7.36 |
| O=C(NCCOc1nonc1/C(=N/O)N[C@H]1Cc2ccc(F)cc21)[C@H](O)CO | IDO1 in Hela cells stimulated with IFNγ (Homo sapiens (Human)) | 5.63 |

a. O=C(CO)N[C@H]1C[C@H](Oc2nonc2/C(=N/O)N[C@H]2Cc3ccc(F)cc32)C1
b. O=C(CO)NCCOc1nonc1/C(=N/O)N[C@H]1Cc2ccc(F)cc21
Lab notebook, comparison: a versus b , higher pIC50 goes to which? Write down the label of the entry you select.
b
(b: 6.49, a: 5.87)
